- Tested on: NRF2
- MEASUREMENT_DESCRIPTION: qPCR analysis of NRF2-regulated genes
- Type: cell-based, human
- CONDITION: Homo sapiens; 10 μM, 24 hrs, WI-38 cells, qPCR, normalized to B2M, n = 4; read-out: HMOX1 expression, normalized fold change (NRF2-regulated gene)
Note to self: use 1 only for fold induction at 10 µM readings below 6; a reading exactly at 6 still gets 0.

LINE_NOTATION | ASSIGNED_CLASS
O=C(NCc1cccnc1)/C(=C/c1ccc(-c2ccc(Cl)cc2)o1)S(=O)(=O)c1ccccc1 | 0
COc1ccc(C(=O)/C=C/c2ccccc2Br)c(OC)c1 | 1
O=C(/C(=C/c1ccc(Cl)cc1)c1nc2ccccc2[nH]1)c1ccccc1 | 1
CCCN1C/C(=C\c2ccc(F)cc2)C(=O)/C(=C/c2ccc(F)cc2)C1 | 0
COc1ccc(C(=O)/C=C/c2cccc(Cl)c2)c(OC)c1 | 0
COc1cccc(/C=C2\CN(C)C/C(=C\c3cccc(OC)c3OC)C2=O)c1OC | 0
O=C(c1ccc([N+](=O)[O-])o1)N1CCc2ccccc21 | 1
COc1ccc(C(=O)/C=C/c2ccc(F)cc2)c(OC)c1 | 1

Consider the molecule CCc1ccc(Oc2nc3ccccn3c(=O)c2/C=C(\C#N)C(=O)NC2CCCCC2)cc1 . Is its fold induction at 10 µM strictly less than 6?
1

For this molecule, is fold induction at 10 µM lower than 6? CCCC(=O)Nc1ccc(-c2cn3cccc(C)c3n2)cc1
1

Below 6 on fold induction at 10 µM? Entry CCc1ccc(Oc2nc3ccccn3c(=O)c2/C=C(\C#N)C(=O)NCc2ccco2)cc1
1

Confirm or reject: fold induction at 10 µM of COc1ccc(/C=C2\SC(=N)N(c3nccs3)C2=O)cc1 lies strictly below 6
1

Threshold test, fold induction at 10 µM < 6: O=C(NCc1cccnc1)/C(=C\c1ccc(Br)cc1)S(=O)(=O)c1ccccc1
0

Is 6 strictly greater than the molecule's reported fold induction at 10 µM? molecule: N=C1S/C(=C\c2cn(-c3ccccc3)nc2-c2cccs2)C(=O)N1c1nccs1
1

# strict comparison: is reported fold induction at 10 µM < 6? input = O=C(/C=C/c1cn(-c2ccccc2)nc1-c1cccnc1)c1ccccc1
1

* * *

- System: NRF2
- MEASUREMENT_DESCRIPTION: qPCR analysis of NRF2-regulated genes
- Assay type: cell-based, human
- CONDITION: 2-point score
# Lookup of reported F = Potential NRF2 Activation keyed by entry
Lab note: jot down the number only; don't add units.

The cases that follow already have their F = Potential NRF2 Activation on record.
MOLECULE | MEASURED_ON | MEASUREMENT
CCc1ccc(Oc2nc3ccccn3c(=O)c2/C=C(\C#N)C(=O)NC2CCCCC2)cc1 [Gr-5A] | NRF2 | 2
CCCC(=O)Nc1ccc(-c2cn3cccc(C)c3n2)cc1 [O12] | NRF2 | 0
[O-][n+]1onc2c3nsnc3c(Br)cc21 [O17] | NRF2 | 0
O=C(/C(=C/c1ccc(Cl)cc1)c1nc2ccccc2[nH]1)c1ccccc1 [Gr-4D] | NRF2 | 2

// moving on: another record for F = Potential NRF2 Activation
Quick one: F = Potential NRF2 Activation for O=C(Nc1cccc(Cl)c1)c1ccc([N+](=O)[O-])o1 [Gr-1D] ?
0

* * *

- Test system: C. elegans
- MEASUREMENT_DESCRIPTION: C. elegans lifespan assays (liquid and plate)
- Type: in vivo, Caenorhabditis elegans
- CONDITION: Caenorhabditis elegans, 60 μM, in liquid, wild type, with FuDR, 2.5 × 10^9 bacteria/ml; read-out: relative change of mean lifespan vs control, Trial 2
METRIC: ILS at 60 µM (%)
Respond numerically; units are % and should not be typed.

LINE_NOTATION | METRIC | MEASUREMENT
[O-][n+]1onc2c3nsnc3c(Br)cc21 | ILS at 60 µM | 22.6
CCc1ccc(Oc2nc3ccccn3c(=O)c2/C=C(\C#N)C(=O)NCc2ccco2)cc1 | ILS at 60 µM | 2
COc1ccc(C(=O)/C=C/c2cccc(Cl)c2)c(OC)c1 | ILS at 60 µM | 3.1

Then there is this compound:
Which ILS at 60 µM reading was recorded for the compound Cc1ccc(S(=O)(=O)Nc2cccc3cccnc23)cc1 ?
12.5

* * *

Each entry below carries its recorded O = Potential toxicity.
- Test system: WI-38 cells
- MEASUREMENT_DESCRIPTION: Long-term effects on cell viability (5 days, ATP; morphology, PI imaging)
- Assay type: cell-based
- CONDITION: human, 5 days, 10 μM
Reply with just the number.

Any idea what its O = Potential toxicity is? The molecule is CC1C(=O)C(C)C(c2cc(Cl)ccc2O)NC1c1cc(Cl)ccc1O (stereo not shown) [O6]
0

Tell me the measured O = Potential toxicity of O=C(/C(=C/c1ccc(Cl)cc1)c1nc2ccccc2[nH]1)c1ccccc1 [Gr-4D] , please.
0

Reported O = Potential toxicity for O=C(Nc1cc(C(F)(F)F)ccc1Cl)c1ccc([N+](=O)[O-])o1 [Gr-1B] : what is it?
1

So what does the record say about O = Potential toxicity for CC(C)(C)c1ccc(OCC(=O)Nc2ccc3c4c(cccc24)C(=O)NC3=O)cc1 [O22] ?
0

* * *

- Test system: FOXO3
- MEASUREMENT_DESCRIPTION: qPCR analysis of FOXO3-regulated genes
- Assay type: cell-based, human
- CONDITION: score
# K = Sestrin induction values compiled below

Here's what some known entries look like.
MOLECULE | METRIC | MEASUREMENT
O=[N+]([O-])c1ccccc1S(=O)(=O)Nc1cccc2cccnc12 [Gr-3A] | K = Sestrin induction | 0
Cc1cc(C)c(C(=O)/C=C/c2ccccc2F)c(O)n1 [O18] | K = Sestrin induction | 0
Cc1ccc(NC(=O)c2ccc([N+](=O)[O-])o2)cc1C [Gr-1F] | K = Sestrin induction | 1

// returns reported K = Sestrin induction for input [O-][n+]1onc2c3nsnc3c(Br)cc21 [O17]
0

Recorded K = Sestrin induction for O=C(Nc1cc(C(F)(F)F)ccc1Cl)c1ccc([N+](=O)[O-])o1 [Gr-1B] , please?
0

# input molecule: CCc1ccc(Oc2nc3ccccn3c(=O)c2/C=C(\C#N)C(=O)NC2CCCCC2)cc1 [Gr-5A] ; wanted: its K = Sestrin induction
0

Give the measured K = Sestrin induction of O=C(c1ccc([N+](=O)[O-])o1)N1CCc2ccccc21 [O13] .
0

// K = Sestrin induction lookup, key: Cc1ccc(S(=O)(=O)Nc2cccc3cccnc23)cc1 [Gr-3B]
0

What measured K = Sestrin induction goes with O=C(/C(=C/c1ccc(Cl)cc1)c1nc2ccccc2[nH]1)c1ccccc1 [Gr-4D] ?
1

Fill in the blank: the reported K = Sestrin induction of COc1ccc(C(=O)/C=C/c2ccc(F)cc2)c(OC)c1 [Gr-4A] is ____.
0

* * *

- Test system: FOXO3
- MEASUREMENT_DESCRIPTION: qPCR analysis of FOXO3-regulated genes
- Format: cell-based, human
- CONDITION: Homo sapiens; qPCR; WI-38 cells; 10 μM, n=4, 24 hrs; normalized by B2M; read-out: TXNIP Normalized fold change
METRIC: fold induction at 10 µM
In your answer, state the number alone without any accompanying words.

Example cases with answers are listed next.
LINE_NOTATION | MEASURED_ON | fold induction at 10 µM
NS(=O)(=O)c1ccc(NC(=O)c2ccc([N+](=O)[O-])o2)cc1 | FOXO3 | 1.23
O=C(Nc1nc(C23CC4CC(CC(C4)C2)C3)cs1)C(c1ccccc1)c1ccccc1 | FOXO3 | 0.731
Cc1ccc(S(=O)(=O)Nc2cccc3cccnc23)cc1 | FOXO3 | 1.06
COc1ccc(C(=O)/C=C/c2ccc(F)cc2)c(OC)c1 | FOXO3 | 0.819
COc1ccc(C(=O)/C=C/c2ccccc2Br)c(OC)c1 | FOXO3 | 0.792
CCc1ccc(Oc2nc3ccccn3c(=O)c2/C=C(\C#N)C(=O)NC2CCCCC2)cc1 | FOXO3 | 1.14

Consider the additional compound presented here.
Need fold induction at 10 µM, item O=C(Nc1cccc(Cl)c1)c1ccc([N+](=O)[O-])o1
0.621

* * *

PI-positive dead cells under normal conditions overview
- Tested on: WI-38 cells
- CONDITION: WI-38; no H2O2; control 0.4±0.2%

LINE_NOTATION | MEASUREMENT
CCCN1C/C(=C\c2ccc(F)cc2)C(=O)/C(=C/c2ccc(F)cc2)C1 | 3.8%±0.7%
O=C(Nc1ccc(Cl)c(Cl)c1)c1ccc([N+](=O)[O-])o1 | 7.1%±1.1%
O=C(Nc1cc(C(F)(F)F)ccc1Cl)c1ccc([N+](=O)[O-])o1 | 1.0%±0.3%

Tell me the measured PI-positive dead cells under normal conditions of O=C(NCc1cccnc1)/C(=C\c1ccc(Br)cc1)S(=O)(=O)c1ccccc1 , please.
3.6%±0.7%

Record request: PI-positive dead cells under normal conditions value, item COC(=O)CCc1sc2c(c1[N+](=O)[O-])NC(=O)CCC2
0.7%±0.3%

Entry under review: COc1cccc(/C=C2\CN(C)C/C(=C\c3cccc(OC)c3OC)C2=O)c1OC . Reported PI-positive dead cells under normal conditions?
2.6%±1.4%
